Each entry below carries its reported pIC50.
Tested on: EBOV
Assay: organism not typed
Format: cell-based, Zaire Ebolavirus (Mayinga strain)
Settings: read-out: IC-50 (EBOV)
To interpret pIC50, take it as minus log10 of a concentration measured in moles per litre.

Consider the reported pIC50 for these compounds:
compound | pIC50
CC1(C)CC(NC(=O)N2c3ccccc3Sc3ccccc32)CC(C)(C)N1 | 5.22
CC(C)N1CCN(C(=O)c2ccc(OC3CCN(CCc4ccccc4)CC3)cc2)CC1 | 4.89
CCN(CC)CCCNc1nc(CN2CCOCC2)nc2sc3c(c12)CCC3 | 5.45
C=C1C(=O)c2sccc2C(c2ccc(OC)c(OC)c2)C1COC(C)=O (stereo not drawn) | 5.23
C=CCNCCOCCOc1ccc(Cl)cc1C(C)(C)C | 6.21
CCOc1cccc(CNCCO)c1OCc1ccc(Cl)cc1Cl.Cl | 4.61
COc1ccc2c(c1)c(CCN)c(C)n2Cc1ccccc1.Cl | 5.19
Fc1ccc2c(c1)Sc1ccc(Cl)cc1CC2N1CCN(CCC2OCCO2)CC1 (stereo not drawn) | 6.16
C=C(c1ccc(O)cc1)c1ccc(O)cc1 | 4.59
CC(C)(CS(=O)(=O)[O-])NC(=O)CC[N+](C)(C)CCO | 5.16

[Q] Which pIC50 is listed for `CCOC(=O)N1CCN(S(=O)(=O)c2ccc(C(=O)N(CCCN(C)C)c3nc4c(C)c(C)ccc4s3)cc2)CC1.Cl` ?
[A] 6.22

[Q] Which pIC50 is listed for `Cc1cc(N2CCN(C)CC2)nc2ccc(NC(=S)NCCCN3CCc4ccccc4C3)cc12` ?
[A] 5.81

[Q] Which pIC50 is listed for `CN(C)CCCNC(=S)N1CCN(c2nc(-c3ccccc3)cs2)CC1` ?
[A] 4.60

[Q] Which pIC50 is listed for `O=C(CCCN1CCc2[nH]c3ccc(F)cc3c2C1)c1ccc(F)cc1` ?
[A] 5.51

[Q] Which pIC50 is listed for `CN(C)c1cc(NC(=O)CN2CCCC2)c2ccccc2n1.O=C(O)C(=O)O` ?
[A] 5.28

[Q] Which pIC50 is listed for `Cc1cc(C(=O)c2ccccc2)c(NC(=O)CCl)s1` ?
[A] 4.60
